Kindly supply the reported MIC A.b TNP 41704 values for the records listed here.
Tested on: A.b TNP 41704
test description: MIC against A. baumannii clinical isolates, alone and in combination with antibiotics
Type: cell-based
measurement context: Compounds + meropenem (1:1)
Give the value in µg/mL but do not write µg/mL after it.

For C[C@]1(/C=N/NC(=O)C2CCN(C(=O)c3ccc(O)c(O)c3Cl)C2)[C@H](C(=O)O)N2C(=O)C[C@H]2S1(=O)=O (stereo partly drawn) on A.b TNP 41704, measured MIC A.b TNP 41704 was 4

Per the reported A.b TNP 41704 data, `C[C@]1(/C=N/NC(=O)[C@H](CO)NC(=O)c2ccc(O)c(O)c2Cl)[C@H](C(=O)O)N2C(=O)C[C@H]2S1(=O)=O` has MIC A.b TNP 41704 of 4

`C[C@]1(/C=N/NC(=O)c2ccc(O)c(O)c2)[C@H](C(=O)O)N2C(=O)C[C@H]2S1(=O)=O` tested on A.b TNP 41704 gave MIC A.b TNP 41704: 4

Reported A.b TNP 41704 MIC A.b TNP 41704 for item `CN(NC(=O)c1ccc(O)c(O)c1)C(=O)OC[C@@]1(C)[C@H](C(=O)O)N2C(=O)C[C@H]2S1(=O)=O` was 16

Entry `C[C@]1(/C=N/NC(=O)c2cccc(O)c2O)[C@H](C(=O)O)N2C(=O)C[C@H]2S1(=O)=O` : MIC A.b TNP 41704 on A.b TNP 41704 = 8

Form: item `C[C@]1(/C=N/NC(=O)CCNC(=O)c2ccc(O)c(O)c2)[C@H](C(=O)O)N2C(=O)C[C@H]2S1(=O)=O` ; test system A.b TNP 41704; MIC A.b TNP 41704: 4

Simply: `C[C@]1(/C=N/OCCNC(=O)c2ccc(O)c(O)c2Cl)[C@H](C(=O)O)N2C(=O)C[C@H]2S1(=O)=O` , A.b TNP 41704, MIC A.b TNP 41704 = 128

Reading of MIC A.b TNP 41704 for `C[C@]1(/C=N/NC(=O)c2ccc(O)cc2)[C@H](C(=O)O)N2C(=O)C[C@H]2S1(=O)=O` with A.b TNP 41704: 32

Readout MIC A.b TNP 41704 for `C[C@H](NC(=O)c1ccc(O)c(O)c1Cl)C(=O)N/N=C/[C@@]1(C)[C@H](C(=O)O)N2C(=O)C[C@H]2S1(=O)=O` , test system A.b TNP 41704, was 4

###

System: A.b TNP 41704
test description: MIC against A. baumannii clinical isolates, alone and in combination with antibiotics
Format: cell-based
measurement context: Compounds + meropenem (1:1)
assay readout: MIC A.b TNP 41704 (mg/L)
Reply numerically in mg/L, unit not repeated.

Memo: `C[C@]1(/C=N/NC(=O)C2CCN(C(=O)c3ccc(O)c(O)c3Cl)CC2)[C@H](C(=O)O)N2C(=O)C[C@H]2S1(=O)=O` , reported MIC A.b TNP 41704: 2

# MIC A.b TNP 41704 of `C[C@]1(c2cc(C(=O)c3ccc(O)c(O)c3)on2)[C@H](C(=O)O)N2C(=O)C[C@H]2S1(=O)=O` = 16

Consider `CN(NC(=O)c1ccc(O)c(O)c1Cl)C(=O)OC[C@@]1(C)[C@H](C(=O)O)N2C(=O)C[C@H]2S1(=O)=O` . Its measured MIC A.b TNP 41704 is 16

// `CN(NC(=O)OC[C@@]1(C)[C@H](C(=O)O)N2C(=O)C[C@H]2S1(=O)=O)C(=O)c1ccc(O)c(O)c1Cl` : MIC A.b TNP 41704 value = 16

MIC A.b TNP 41704 for `COc1ccc(C(=O)N/N=C/[C@@]2(C)[C@H](C(=O)O)N3C(=O)C[C@H]3S2(=O)=O)cc1` is 32

Recorded result, `C[C@]1(COC(=O)NNC(=O)c2ccc(O)c(O)c2Cl)[C@H](C(=O)O)N2C(=O)C[C@H]2S1(=O)=O` , MIC A.b TNP 41704: 8

According to the records, this compound `C[C@]1(/C=N/NC(=O)CNC(=O)c2ccc(O)c(O)c2)[C@H](C(=O)O)N2C(=O)C[C@H]2S1(=O)=O` displays MIC A.b TNP 41704 of 2

###

Tested on: A.b TNP 41704
test description: MIC against A. baumannii clinical isolates, alone and in combination with antibiotics
Type: cell-based
measurement context: Acinetobacter baumannii, TNP41704; Compounds alone; read-out: MIC A.b TNP 41704
assay readout: MIC

For this molecule ( `C[C@]1(COC(=O)c2ccc(O)c(O)c2Cl)[C@H](C(=O)O)N2C(=O)C[C@H]2S1(=O)=O` ), measured MIC is > 128 µg/mL

// MIC lookup, molecule = `CN(NC(=O)c1ccc(O)c(O)c1Cl)C(=O)OC[C@@]1(C)[C@H](C(=O)O)N2C(=O)C[C@H]2S1(=O)=O` , result: > 128 µg/mL

Measured MIC, `C[C@]1(c2cc(C(=O)c3ccc(O)c(O)c3)on2)[C@H](C(=O)O)N2C(=O)C[C@H]2S1(=O)=O` : > 64 µg/mL

Reported MIC of `C[C@]1(/C=N/OCCNC(=O)c2ccc(O)c(O)c2Cl)[C@H](C(=O)O)N2C(=O)C[C@H]2S1(=O)=O` : > 128 µg/mL

Short answer for `C[C@]1(/C=N/NC(=O)CNC(=O)c2ccc(O)c(O)c2)[C@H](C(=O)O)N2C(=O)C[C@H]2S1(=O)=O` : MIC was > 128 µg/mL

MIC recorded for this molecule, `C[C@]1(CNc2ccc(O)c(O)c2)[C@H](C(=O)O)N2C(=O)C[C@H]2S1(=O)=O` , is 64 µg/mL

Looking up `C[C@]1(/C=N/NC(=O)[C@H](CO)NC(=O)c2ccc(O)c(O)c2Cl)[C@H](C(=O)O)N2C(=O)C[C@H]2S1(=O)=O` , I see its MIC listed as > 128 µg/mL

Recorded MIC (molecule `C[C@]1(/C=N/NC(=O)C2CCN(C(=O)c3ccc(O)c(O)c3Cl)CC2)[C@H](C(=O)O)N2C(=O)C[C@H]2S1(=O)=O` ): > 128 µg/mL

Just so you know, measured MIC for `C[C@]1(/C=N/NC(=O)c2cccc(O)c2O)[C@H](C(=O)O)N2C(=O)C[C@H]2S1(=O)=O` came out at > 128 µg/mL

MIC recorded for this molecule, `CN(NC(=O)c1ccc(O)c(O)c1)C(=O)OC[C@@]1(C)[C@H](C(=O)O)N2C(=O)C[C@H]2S1(=O)=O` , is > 128 µg/mL

`C[C@]1(/C=N/NC(=O)c2ccc(O)c(O)c2)[C@H](C(=O)O)N2C(=O)C[C@H]2S1(=O)=O` has a reported MIC of > 128 µg/mL

Just so you know, measured MIC for `C[C@]1(/C=N/NC(=O)CCNC(=O)c2ccc(O)c(O)c2)[C@H](C(=O)O)N2C(=O)C[C@H]2S1(=O)=O` came out at > 128 µg/mL

Consider `CN(NC(=O)OC[C@@]1(C)[C@H](C(=O)O)N2C(=O)C[C@H]2S1(=O)=O)C(=O)c1ccc(O)c(O)c1Cl` . Its measured MIC is > 128 µg/mL

Note to self: MIC recorded for `C[C@]1(/C=N/NC(=O)Cc2ccc(O)c(O)c2)[C@H](C(=O)O)N2C(=O)C[C@H]2S1(=O)=O` was > 128 µg/mL

###

Provide the reported MIC of each item.
System: A.b TNP 41708
test description: MIC against A. baumannii clinical isolates, alone and in combination with antibiotics
Assay type: cell-based
measurement context: Acinetobacter baumannii, TNP41708, read-out: MIC A.b TNP 41708

Value of MIC reported for the molecule C[C@]1(COC(=O)NNC(=O)c2ccc(O)c(O)c2Cl)[C@H](C(=O)O)N2C(=O)C[C@H]2S1(=O)=O [Example 70] is 16 µg/mL

Entry C[C@]1(/C=N/OCCNC(=O)c2ccc(O)c(O)c2Cl)[C@H](C(=O)O)N2C(=O)C[C@H]2S1(=O)=O [Example 118] — recorded MIC = > 128 µg/mL

Record C[C@]1(/C=N/NC(=O)c2ccc(O)c(O)c2)[C@H](C(=O)O)N2C(=O)C[C@H]2S1(=O)=O [Example 5] , field MIC: > 128 µg/mL

###

Tested on: A.b TNP 41704
test description: MIC against A. baumannii clinical isolates, alone and in combination with antibiotics
Assay type: cell-based
measurement context: Compounds + meropenem (1:1)
Provide the reported MIC A.b TNP 41704 of each item.
Record the value in µg/mL, omitting the unit from your answer.

So for C[C@]1(/C=N/NC(=O)CCNC(=O)c2ccc(O)c(O)c2Cl)[C@H](C(=O)O)N2C(=O)C[C@H]2S1(=O)=O [Example 60] , the logged MIC A.b TNP 41704 turned out to be 2

Measured MIC A.b TNP 41704, C[C@]1(COC(=O)c2ccc(O)c(O)c2Cl)[C@H](C(=O)O)N2C(=O)C[C@H]2S1(=O)=O [Example 114] : 64

MIC A.b TNP 41704 in this record for C[C@]1(CNc2ccc(O)c(O)c2)[C@H](C(=O)O)N2C(=O)C[C@H]2S1(=O)=O [Example 117] : 8

C[C@]1(/C=N/NC(=O)Cc2ccc(O)c(O)c2)[C@H](C(=O)O)N2C(=O)C[C@H]2S1(=O)=O [Example 20] has a reported MIC A.b TNP 41704 of 8
